# system_under_test: hTLR4 (Homo sapiens, UniProt O00206+Q9Y6Y9)
# Sequence (O00206 24-839): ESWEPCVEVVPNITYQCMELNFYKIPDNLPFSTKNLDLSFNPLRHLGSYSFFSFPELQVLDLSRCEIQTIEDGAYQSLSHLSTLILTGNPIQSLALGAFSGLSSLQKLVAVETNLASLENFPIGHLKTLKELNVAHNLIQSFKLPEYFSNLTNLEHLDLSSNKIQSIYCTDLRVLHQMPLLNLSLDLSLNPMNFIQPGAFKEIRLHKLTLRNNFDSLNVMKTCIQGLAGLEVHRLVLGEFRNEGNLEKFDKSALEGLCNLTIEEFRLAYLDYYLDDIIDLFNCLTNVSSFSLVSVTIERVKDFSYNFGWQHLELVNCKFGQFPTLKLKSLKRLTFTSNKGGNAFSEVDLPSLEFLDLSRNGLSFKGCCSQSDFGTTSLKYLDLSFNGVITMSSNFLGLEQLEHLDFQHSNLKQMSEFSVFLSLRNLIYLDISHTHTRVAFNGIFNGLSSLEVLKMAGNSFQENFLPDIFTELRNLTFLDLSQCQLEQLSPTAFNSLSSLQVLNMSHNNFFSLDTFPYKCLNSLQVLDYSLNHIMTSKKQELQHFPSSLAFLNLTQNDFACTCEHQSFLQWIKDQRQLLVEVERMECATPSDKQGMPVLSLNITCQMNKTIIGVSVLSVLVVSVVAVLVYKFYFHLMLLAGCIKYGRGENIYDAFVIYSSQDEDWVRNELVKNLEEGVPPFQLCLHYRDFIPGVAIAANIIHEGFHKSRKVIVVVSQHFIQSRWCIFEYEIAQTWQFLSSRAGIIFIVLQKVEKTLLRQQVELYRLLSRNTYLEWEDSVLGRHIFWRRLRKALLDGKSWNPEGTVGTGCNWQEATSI
# Sequence (Q9Y6Y9 17-160 limits assumed): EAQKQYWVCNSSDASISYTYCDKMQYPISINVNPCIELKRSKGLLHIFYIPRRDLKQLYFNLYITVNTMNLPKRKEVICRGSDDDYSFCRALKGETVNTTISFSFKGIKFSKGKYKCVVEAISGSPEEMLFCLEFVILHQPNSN
# protocol: HEK-Blue hTLR4 SEAP reporter assay (NF-κB/AP-1 activation)
# condition_description: HEK-Blue hTLR4 cells, dose-response curve, 16-18 hours
quantity: EC50 (µM)
Numeric answer only, unit µM assumed.

Q. Report EC50 for CCCCCCCCCCCCCC(=O)NC1C(OC(=O)CCCCCCCCCCCCC)[C@H](OC(=O)CCCCCCCCCCCCC)C(CO)O[C@H]1OP(=O)(O)O (stereo partly shown) please.
A. 12.3
